Biological target: KRAS (G12D)::SOS1 (Homo sapiens (Human), UniProt P01116, G12D)
Sequence (P01116 other isoform, or with tags, fused parts or gaps G12D): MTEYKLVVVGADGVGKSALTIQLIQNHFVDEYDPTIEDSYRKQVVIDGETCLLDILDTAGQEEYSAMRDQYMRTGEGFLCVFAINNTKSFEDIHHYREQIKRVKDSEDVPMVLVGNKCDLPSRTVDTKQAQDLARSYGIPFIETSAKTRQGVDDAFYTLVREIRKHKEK
Assay: KRAS::SOS1 AlphaScreen binding assay, KRAS G12D
Procedure: This assay can be used to examine the potency with which compounds according to the invention binding to (mutated) KRAS inhibit the protein-protein interaction between SOS1 and (mutated) KRAS e.g., KRAS WT, KRAS G12C, KRAS G12D, KRAS G12V, KRAS G13D. […] Plates are kept at room temperature in a darkened incubator. After an additional 60 minutes incubation time the signal is measured in a PerkinElmer Envision HTS Multilabel Reader using the AlphaScreen specs from PerkinElmer. […]
pIC50: −log10 of the molar value.
parameter-measured: pIC50

### Prompt Param item = C[C@H](Oc1nc(-c2noc3c2CCC[C@@]32CCCc3sc(N)c(C#N)c32)nc(N2CCN(C)C3(CC3)C2)c1Cl)[C@@H]1C[C@@H](F)CN1C ; retrieve measured pIC50.
### Response 8.70

### Prompt What does the data say about its pIC50? Entry: C[C@H](Oc1cc(-n2cncn2)nc(-c2onc3c2CCC[C@@]32CCCc3sc(N)c(C#N)c32)n1)[C@@H]1CCCN1C
### Response 8.52

### Prompt Using the record for C[C@@H]1CN(c2cc(O[C@@H](C)[C@@H]3CCCN3C)nc(-c3noc4c3CCC[C@@]43CCCc4sc(N)c(C#N)c43)n2)C[C@H](C)N1 , report its pIC50.
### Response 9.00

a. C[C@H]1CNCCCN1c1cc(-n2ccnc2)nc(-c2noc3c2CCC[C@@]32CCCc3sc(N)c(C#N)c32)n1
b. C[C@H](Oc1cc(-c2ccn(C[C@@H]3CCCO3)n2)nc(-c2noc3c2CCC[C@@]32CCCc3sc(N)c(C#N)c32)n1)[C@@H]1CCCN1C
c. C[C@H](Oc1cc(N2CC[C@@H](N(C)C)C2)nc(-c2noc3c2CCC[C@@]32CCCc3sc(N)c(C#N)c32)n1)[C@@H]1CCCN1C
d. C[C@H](Oc1cc(-c2ccn(-c3ccccc3)n2)nc(-c2noc3c2CCC[C@@]32CCCc3sc(N)c(C#N)c32)n1)[C@@H]1CCCN1C
### Prompt Sequence the entries by pIC50, beginning with the highest number. // ordering of labels required in reply
### Response c, b, d, a

a. CCOC(=O)c1ccn(-c2cc(O[C@@H](C)[C@@H]3CCCN3C)nc(-c3noc4c3CCC[C@@]43CCCc4sc(N)c(C#N)c43)n2)n1
b. COc1c(O[C@@H](C)[C@@H]2CCCN2C)nc(-c2noc3c2CCC[C@@]32CCCc3sc(N)c(C#N)c32)nc1-n1ccc(C(N)=O)n1
c. C[C@H](Oc1cc(-n2cccc3cnnc2-3)nc(-c2noc3c2CCC[C@@]32CCCc3sc(N)c(C#N)c32)n1)[C@@H]1CCCN1C
d. C[C@H](Oc1cc(-n2ccc(C(=O)N(C)C3COC3)n2)nc(-c2onc3c2CCC[C@@]32CCCc3sc(N)c(C#N)c32)n1)[C@@H]1CCCN1C
### Prompt Endpoint returns the given compounds ordered by ascending pIC50. Answer format: list of labels, ordered as asked.
### Response c, b, a, d
(c: 7.85, b: 8.22, a: 8.70, d: 9.00)

P. C[C@H](Oc1cc(-n2ccc(Br)n2)nc(-c2noc3c2CCC[C@@]32CCCc3sc(N)c(C#N)c32)n1)[C@@H]1CCCN1C
Q. C[C@H](Oc1cc(-n2cnc(C(=O)N(C)C)c2)nc(-c2noc3c2CCC[C@@]32CCCc3sc(N)c(C#N)c32)n1)[C@@H]1CCCN1C
R. C[C@H](Oc1cc(N2CCNC3(CC3)C2)nc(-c2onc3c2CCC[C@@]32CCCc3sc(N)c(C#N)c32)n1)[C@@H]1C[C@@H](F)CN1C
### Prompt Sort low-to-high on pIC50, please. When ranking, write the labels in the order the request describes.
### Response Q, P, R
(Q: 8.15, P: 8.52, R: 9.00)

1. C[C@H](Oc1cc(-n2cncc3ccnc2-3)nc(-c2noc3c2CCC[C@@]32CCCc3sc(N)c(C#N)c32)n1)[C@@H]1CCCN1C
2. C[C@H]1CN(C)CCCN1c1cc(N2CCN(C)CC2)nc(-c2noc3c2CCC[C@@]32CCCc3sc(N)c(C#N)c32)n1
3. C[C@H](Oc1cc(-n2cnc3cccnc32)nc(-c2noc3c2CCC[C@@]32CCCc3sc(N)c(C#N)c32)n1)[C@@H]1CCCN1C
4. C[C@H](Oc1nc(-c2noc3c2CCC[C@@]32CCCc3sc(N)c(C#N)c32)cc(N2C[C@H](C)N[C@@H](C)C2)n1)[C@@H]1CCCN1C
### Prompt Endpoint returns the given compounds ordered by ascending pIC50. Response field: labels, in requested order.
### Response 3, 2, 1, 4
(3: 8.05, 2: 8.40, 1: 8.70, 4: 9.00)

a. CO[C@H]1CCN(C)[C@@H]1[C@H](C)Oc1cc(-n2ccc(C(N)=O)n2)nc(-c2noc3c2CCC[C@@]32CCCc3sc(N)c(C#N)c32)n1
b. C[C@H](Oc1cc(-n2cc(C3CC3)nn2)nc(-c2noc3c2CCC[C@@]32CCCc3sc(N)c(C#N)c32)n1)[C@@H]1CCCN1C
c. C[C@H](Oc1cc(N2CCN(C)C3(CC3)C2)nc(-c2onc3c2CCC[C@@]32CCCc3sc(N)c(C#N)c32)n1)[C@@H]1CCCN1C
### Prompt Ascending sort, pIC50. Would you mind listing the labels in the order requested?
### Response b, a, c

A. C[C@H](Oc1cc(-n2cncc3ccnc2-3)nc(-c2onc3c2CCC[C@@]32CCCc3sc(N)c(C#N)c32)n1)[C@@H]1CCCN1C
B. C[C@H](Oc1cc(-c2ccc(N)nc2)nc(-c2onc3c2CCC[C@@]32CCCc3sc(N)c(C#N)c32)n1)[C@@H]1CCCN1C
### Prompt # returns the entry with the larger pIC50; inputs A and B Mark your answer with the label of the selected entry.
### Response A

----------
Test: Metabolic (microsomal) stability assay, human liver microsomes (HLM)
Format: in vitro ADME
Conditions: predicted clearance as percent of liver blood flow, 1 μM
Description: The metabolic degradation of the test compound is assayed at 37° C. with pooled liver microsomes (mouse (MLM), rat (RLM) or human (HLM)). […] Additionally, the NADPH-independent degradation is monitored in incubations without NADPH, terminated at the last time point by addition of acetonitrile. […] An aliquot of the supernatant is assayed by LC-MS/MS to quantify the concentration of parent compound in the individual samples. […]
parameter-measured: HLM QH (%)

For orientation, consider the following solved cases.
### Prompt State the recorded HLM QH for this entry: CO[C@H]1CCN(C)[C@@H]1[C@H](C)Oc1cc(-n2ccc(CC(=O)NC(C)C)n2)nc(-c2onc3c2CCC[C@@]32CCCc3sc(N)c(C#N)c32)n1 [I-48]
### Response 51

### Prompt Given C[C@H](Oc1cc(N2CCN(C)C3(CCOC3)C2)nc(-c2noc3c2CCC[C@@]32CCCc3sc(N)c(C#N)c32)n1)[C@@H]1C[C@@H](F)CN1C (stereo partly drawn) [II-151] , state its recorded HLM QH.
### Response 59

### Prompt Consider the compound shown here: C[C@H](Oc1cc(N2CC3COCC(C2)N3)nc(-c2noc3c2CCC[C@@]32CCCc3sc(N)c(C#N)c32)n1)[C@@H]1CCCN1C [II-160] What is its recorded HLM QH?
### Response 31

### Prompt Which HLM QH is reported for this compound? C[C@H](Oc1cc(-c2ccn(C3COC3)n2)nc(-c2noc3c2CCC[C@@]32CCCc3sc(N)c(C#N)c32)n1)[C@@H]1C[C@H](F)CN1C [II-83]
### Response 72

### Prompt So what's the measured HLM QH for this one? CO[C@H]1CCN(C)[C@@H]1[C@H](C)Oc1cc(-n2ccc(C(=O)N[C@@H]3CCOC3)n2)nc(-c2noc3c2CCC[C@@]32CCCc3sc(N)c(C#N)c32)n1 [II-197]
### Response 69

a. C[C@H](Oc1cc(-n2cc3c(n2)CNC3)nc(-c2noc3c2CCC[C@@]32CCCc3sc(N)c(C#N)c32)n1)[C@@H]1CCCN1C [II-168]
b. CC(C)NC(=O)Cc1ccn(-c2cc(O[C@@H](C)[C@@H]3CCCN3C)nc(-c3noc4c3CCC[C@@]43CCCc4sc(N)c(C#N)c43)n2)n1 [II-182]
### Prompt Lowest HLM QH? choose a or b Kindly state the label of the option you pick.
### Response b
(b: 35%, a: 62%)

----------
system: KRAS G12V-dependent Ba/F3 cells; experiment: Ba/F3 proliferation assay, KRAS G12V; type: cell-based; details: Mus musculus, BaF3, 72 h, AlamarBlue;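 also: proliferation IC50 in KRAS G12V-dependent Ba/F3 cells read by AlamarBlue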
parameter-measured: IC50 (nM)

P. C[C@H](Oc1cc(Cl)nc(-c2onc3c2CCC[C@@]32CCCc3sc(N)c(C#N)c32)n1)[C@@H]1CCCN1C
Q. C[C@H](Oc1cc(-c2ccn(-c3ccsc3)n2)nc(-c2noc3c2CCC[C@@]32CCCc3sc(N)c(C#N)c32)n1)[C@@H]1CCCN1C
### Prompt Short answer wanted: higher IC50, P or Q ? Which one? Tell me its label.
### Response P
